- measurement-notes: Inhibition of interleukin-23 binding to rat interleukin-23 receptor incubated for 2 hrs by competitive binding ELISA
assay-endpoint: IC50 (nM)
Write down the numeric answer in nM and omit the unit.

get_value(item= CC(=O)N[C@@H](CS)C(=O)N[C@@H](CCC(N)=O)C(=O)N[C@H](C(=O)N[C@@H](Cc1c[nH]c2ccccc12)C(=O)N[C@@H](CCC(N)=O)C(=O)N[C@@H](CS)C(=O)N[C@@H](Cc1ccc(O)cc1)C(=O)N[C@@H](Cc1c[nH]c2ccccc12)C(=O)N[C@@H](Cc1cccnc1)C(=O)N[C@@H](CCC(=O)O)C(=O)N[C@@H](CC(N)=O)C(=O)NCC(N)=O)[C@@H](C)O , readout=IC50) returns 20

* * *

- measured-target: UniProtKB Q5VWK5
- measurement-notes: Inhibition of interleukin-23 binding to human interleukin-23 receptor incubated for 2 hrs by competitive binding ELISA
pIC50: −log10 of the molar value.
Recorded measurements of pIC50, one per entry

Reference set, count: 5
{"columns": ["compound", "measured-target", "pIC50"],
 "data": [
  ["CC(=O)NCCCC[C@H](NC(=O)C(C)(C)NC(=O)[C@H](Cc1ccc2ccccc2c1)NC(=O)[C@H](Cc1ccc(OCCN)cc1)NC(=O)[C@@H]1CSCC[C@H](NC(C)=O)C(=O)N[C@@H](CCC(N)=O)C(=O)N[C@@H]([C@@H](C)O)C(=O)N[C@@H](Cc2c[nH]c3ccccc23)C(=O)N[C@@H](CCC(N)=O)C(=O)N1)C(=O)N[C@@H](CC(N)=O)C(=O)NCC(N)=O", "UniProtKB Q5VWK5", "> 8.00"],
  ["CC(=O)N[C@H](C(=O)N[C@@H](C)C(=O)N[C@@H](CC(=O)O)C(=O)N[C@@H](Cc1c[nH]c2ccccc12)C(=O)N[C@H](C(=O)N[C@@H](CS)C(=O)N[C@@H](Cc1ccc(O)cc1)C(=O)N[C@@H](Cc1c[nH]c2ccccc12)C(=O)N[C@@H](Cc1cnc[nH]1)C(=O)N[C@H](C(=O)N[C@@H](Cc1ccccc1)C(=O)NCC(=O)NCCOCC(=O)N[C@H](CCCCN)C(N)=O)[C@@H](C)O)C(C)C)C(C)(C)S", "UniProtKB Q5VWK5", "6.00 to 7.00"],
  ["CC(=O)NC1CC/C=C\\CCCC(C(=O)N[C@@H](Cc2ccc(O)cc2)C(=O)N[C@@H](Cc2c[nH]c3ccccc23)C(=O)N[C@@H](CCCNC(=N)N)C(=O)N[C@@H](CCCCN)C(=O)N[C@@H](Cc2ccccc2)C(=O)NCC(=O)NCCOCC(=O)N[C@H](CCCCN)C(N)=O)NC(=O)[C@H](CCC(N)=O)NC(=O)[C@H](Cc2c[nH]c3ccccc23)NC(=O)[C@H]([C@@H](C)O)NC(=O)[C@H](CCCNC(=N)N)NC1=O (stereo partly specified)", "UniProtKB Q5VWK5", "5.00 to 6.00"],
  ["CC(=O)N[C@H](C(=O)N[C@H](C(=O)N[C@H](C(=O)N[C@@H](Cc1c[nH]c2ccccc12)C(=O)N[C@@H](CCC(N)=O)C(=O)N[C@H](C(=O)N[C@@H](Cc1ccc(OCCN)cc1)C(=O)N[C@@H](Cc1ccc2ccccc2c1)C(=O)N[C@@](C)(CCCCN)C(=O)N[C@@H](CCC(=O)O)C(=O)N[C@@H](CC(N)=O)C(=O)NCC(N)=O)C(C)(C)S)[C@@H](C)O)[C@@H](C)O)C(C)(C)S", "UniProtKB Q5VWK5", "7.60 to 8.00"],
  ["CC(=O)N[C@@H](CS)C(=O)N[C@@H](C)C(=O)N[C@@H](CC(=O)O)C(=O)N[C@@H](Cc1c[nH]c2ccccc12)C(=O)N[C@H](C(=O)N[C@@H](CS)C(=O)N[C@@H](Cc1ccc(O)cc1)C(N)=O)C(C)C", "UniProtKB Q5VWK5", "< 4.52"]
]}

# input for lookup
Record for CC(=O)N[C@H](C(=O)N[C@@H](CCC(N)=O)C(=O)N[C@H](C(=O)N[C@@H](Cc1c[nH]c2ccccc12)C(=O)N[C@@H](CCC(N)=O)C(=O)N[C@H](C(=O)N[C@@H](Cc1ccc(OCCN)cc1)C(=O)N[C@@H](Cc1ccc2ccccc2c1)C(=O)N[C@@](C)(CC(C)C)C(=O)N[C@@H](CCC(N)=O)C(=O)N[C@@H](CC(N)=O)C(=O)N[C@@H](CC(N)=O)C(N)=O)C(C)(C)S)[C@@H](C)O)C(C)(C)S under target or system UniProtKB Q5VWK5: pIC50 reported as > 8.00

* * *

- measurement-notes: Inhibition of interleukin-23 binding to rat interleukin-23 receptor incubated for 2 hrs by competitive binding ELISA
Where a SMILES comes first, the peptide text is derived from it.
assay-endpoint: IC50 (nM)
Write down the numeric answer in nM and omit the unit.

{"columns": ["compound", "units-of-measure", "IC50"],
 "data": [
  ["CC(=O)N[C@@H](CS)C(=O)N[C@@H](CCCNC(=N)N)C(=O)N[C@H](C(=O)N[C@@H](Cc1c[nH]c2ccccc12)C(=O)N[C@@H](CCC(N)=O)C(=O)N[C@@H](CS)C(=O)N[C@@H](Cc1ccc(O)cc1)C(=O)N[C@@H](Cc1c[nH]c2ccccc12)C(=O)N[C@@H](CC(C)C)C(=O)N[C@@H](CCCNC(=N)N)C(=O)N[C@@H](CC(C)C)C(=O)NCC(=O)N[C@@H](CC(=O)O)C(=O)N[C@@H](CCC(=O)O)C(=O)NCC(N)=O)[C@@H](C)O (Ac-CRTWQCYWLRLGDEG-NH2)", "nM", 483]
]}

get_value(item= CC(=O)N[C@@H](CS)C(=O)N[C@@H](CCC(N)=O)C(=O)N[C@H](C(=O)N[C@@H](Cc1c[nH]c2ccccc12)C(=O)N[C@@H](CCC(N)=O)C(=O)N[C@@H](CS)C(=O)N[C@@H](Cc1cccc2ccccc12)C(=O)N[C@@H](Cc1ccc2ccccc2c1)C(=O)N[C@@H](CCC(C)C)C(=O)N[C@@H](CCC(=O)O)C(=O)N[C@@H](CC(N)=O)C(=O)NCC(N)=O)[C@@H](C)O , readout=IC50) returns 125

* * *

- measurement-notes: Half life in human intestinal fluid at 20 uM by LC-MS/MS analysis
- Type: ADME
assay-endpoint: half-life at 20 µM

get_value(item= CC(=O)N[C@H]1CCSC[C@@H](C(=O)N[C@@H](Cc2ccc(OCCN)cc2)C(=O)N[C@@H](Cc2c[nH]c3ccccc23)C(=O)N[C@@](C)(CCCCN)C(=O)N[C@@H](CCC(=O)O)C(=O)N[C@@H](CC(N)=O)C(=O)NCC(N)=O)NC(=O)[C@H](CCC(N)=O)NC(=O)[C@H](Cc2c[nH]c3ccccc23)NC(=O)[C@H]([C@@H](C)O)NC(=O)[C@H](CCC(N)=O)NC1=O , readout=half-life at 20 µM) returns > 24 h

* * *

- measured-target: Interleukin-23 receptor (Homo sapiens)
- Sequence (Q5VWK5 whole entry): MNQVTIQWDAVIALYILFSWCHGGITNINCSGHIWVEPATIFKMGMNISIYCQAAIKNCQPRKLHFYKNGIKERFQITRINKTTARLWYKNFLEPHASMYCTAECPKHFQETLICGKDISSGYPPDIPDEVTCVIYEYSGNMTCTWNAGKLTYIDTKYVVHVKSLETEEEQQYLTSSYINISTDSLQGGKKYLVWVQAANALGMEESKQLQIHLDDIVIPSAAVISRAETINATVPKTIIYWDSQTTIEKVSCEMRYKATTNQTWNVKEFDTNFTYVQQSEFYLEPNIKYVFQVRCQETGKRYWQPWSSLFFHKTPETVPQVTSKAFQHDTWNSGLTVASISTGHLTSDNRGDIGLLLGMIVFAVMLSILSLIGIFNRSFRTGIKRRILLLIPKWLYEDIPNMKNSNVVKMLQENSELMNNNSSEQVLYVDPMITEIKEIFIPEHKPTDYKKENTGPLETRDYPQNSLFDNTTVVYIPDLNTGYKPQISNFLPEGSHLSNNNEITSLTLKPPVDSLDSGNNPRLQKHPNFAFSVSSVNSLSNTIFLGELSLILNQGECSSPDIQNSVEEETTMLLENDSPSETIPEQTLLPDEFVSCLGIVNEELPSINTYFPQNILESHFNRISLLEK
- measurement-notes: Inhibition of interleukin-23 receptor in human DB cells assessed as reduction in IL-23-stimulated STAT3 phosphorylation incubated for 30 mins by HTRF assay
- Type: cell-based
pIC50: −log10 of the molar value.
Recorded measurements of pIC50, one per entry

{"columns": ["structure-string", "pIC50"],
 "data": [
  ["COc1ccc(C[C@H](NC(=O)[C@@H](NC(=O)[C@H](CCC(N)=O)NC(=O)[C@H](Cc2c[nH]c3ccccc23)NC(=O)[C@@H](NC(=O)[C@H](CCC(N)=O)NC(=O)[C@@H](NC(C)=O)C(C)(C)S)[C@@H](C)O)C(C)(C)S)C(=O)N[C@@H](Cc2c[nH]c3ccccc23)C(=O)N[C@@](C)(CCCCN)C(=O)N[C@@H](CCCCNC(C)=O)C(=O)N[C@@H](CC(N)=O)C(=O)NCC(N)=O)cc1", "7.60 to 8.00"],
  ["CC[C@H](NC(=O)[C@H](CC(N)=O)NC(=O)[C@H](CCCCNC(C)=O)NC(=O)C(C)(C)NC(=O)[C@H](Cc1ccc2ccccc2c1)NC(=O)[C@H](Cc1ccc(OC)cc1)NC(=O)[C@@H](NC(=O)[C@H](CCC(N)=O)NC(=O)[C@H](Cc1c[nH]c2ccccc12)NC(=O)[C@@H](NC(=O)[C@H](CC(N)=O)NC(=O)[C@@H](NC(C)=O)C(C)(C)S)[C@@H](C)O)C(C)(C)S)C(N)=O", "> 8.00"],
  ["CC(=O)N[C@H]1CCSC[C@@H](C(=O)N[C@@H](Cc2ccc(OCCN)cc2)C(=O)N[C@@H](Cc2c[nH]c3ccccc23)C(=O)N[C@@H](CCC(C)C)C(=O)N[C@@H](CCC(=O)O)C(=O)N[C@@H](CC(N)=O)C(=O)NCC(N)=O)NC(=O)[C@H](CCC(N)=O)NC(=O)[C@H](Cc2c[nH]c3ccccc23)NC(=O)[C@H]([C@@H](C)O)NC(=O)[C@H](CCC(N)=O)NC1=O", "> 8.00"],
  ["CC(=O)N[C@H]1CCSC[C@@H](C(=O)N[C@@H](Cc2ccc(O)cc2)C(=O)N[C@@H](Cc2c[nH]c3ccccc23)C(=O)N[C@@H](CCCNC(=N)N)C(=O)N[C@@H](CCCCN)C(=O)N[C@@H](Cc2ccccc2)C(=O)NCC(=O)NCCOCC(=O)N[C@H](CCCCN)C(N)=O)NC(=O)[C@H](CCC(N)=O)NC(=O)[C@H](Cc2c[nH]c3ccccc23)NC(=O)[C@H]([C@@H](C)O)NC(=O)[C@H](CCCNC(=N)N)NC1=O", "7.00 to 7.60"]
]}

# input for lookup
Record for CC(=O)NCCCC[C@H](NC(=O)[C@@](C)(NC(=O)[C@H](Cc1ccc2ccccc2c1)NC(=O)[C@H](Cc1ccc(C(N)=O)cc1)NC(=O)[C@@H](NC(=O)[C@H](CCC(N)=O)NC(=O)[C@H](Cc1c[nH]c2ccccc12)NC(=O)[C@@H](NC(=O)[C@H](CCC(N)=O)NC(=O)[C@@H](NC(=O)[C@@H](CCCCN)NC(C)=O)C(C)(C)S)[C@@H](C)O)C(C)(C)S)C(C)C)C(=O)N[C@@H](CC(N)=O)C(=O)N[C@@H](CC(N)=O)C(N)=O under target or system Interleukin-23 receptor (Homo sapiens): pIC50 reported as 5.00 to 6.00
